Read-out: urokinase plasminogen activator (uPA), PLAU (gene 5328)
method: BSK_KF3CT_uPA: BioMAP Diversity Plus: KF3CT Assay for urokinase plasminogen activator (uPA) Biomarker Activity (AID 2283075)
particulars: primary human keratinocytes with fibroblasts; actives raise or lower the signal
Activity calls are given as the source filed them. Rule for the calls: active = hit-call score of the fitted dose curve at least 0.9, where 1 is the maximum; inactive = score below 0.9.
Possible outcomes: y for active, n for inactive

O=C(O)C(F)(F)C(F)(F)C(F)F : n
C=CC(=O)OCC(F)(F)C(F)(F)C(F)(F)C(F)(F)C(F)(F)C(F)(F)C(F)(F)F : n
OCC(F)(F)C(F)(F)C(F)(F)F : n
C=C(C)C(=O)OCC(F)(F)C(F)(F)C(F)(F)F : n
O=C(O)C(F)(F)C(F)(F)C(F)(F)C(F)(F)C(F)(F)C(F)(F)C(F)(F)C(F)(F)C(F)(F)C(F)(F)C(F)(F)C(F)(F)F : n
N=C(N)C(F)(F)C(F)(F)C(F)(F)C(F)(F)C(F)(F)C(F)(F)C(F)(F)F : n
C=CC/C=C/C/C=C/C/C=C/C : n
CCCCCCC(C)OC(=O)CCCCC(=O)OC(C)CCCCCC (centres undefined) : n
CCCCOCCOCCOC(=O)CCCCC(=O)OCCOCCOCCCC : n
CCCCC(CC)COP(=O)(O)OCC(CC)CCCC (centres undefined) : n
FC(F)(F)C(F)(F)C(F)(F)C(F)(F)C(F)(F)C(F)(F)C(F)(F)I : n
FC1CC(F)(F)C(F)(F)C1(F)F (centres undefined) : n
COC(=O)CCC(F)(F)C(F)(F)C(F)(F)C(F)(F)F : n
FC(F)(F)C(F)(F)C(F)(F)C(F)(F)C(F)(F)C(F)(F)C(F)(F)C(F)(F)F : n
O=C(Cl)C(F)(F)C(F)(F)C(F)(F)C(F)(F)C(F)(F)C(F)(F)C(F)(F)C(F)(F)F : n
CC(C)(C)C(=O)CC(=O)C(F)(F)C(F)(F)C(F)(F)F : n
CCCCCCCCCCCCCCCC[N+](C)(C)Cc1ccccc1 : y
CS(C)(=O)=O : n
OCCCC(F)(F)C(F)(F)C(F)(F)F : n
Oc1ccc(Nc2ccccc2)cc1 : n
FC(F)(F)C(F)(F)C(F)(F)C(F)(F)C(F)(F)C(F)(F)CCS : n
CO[Si](OC)(c1ccccc1)c1ccccc1 : y
CCO[Si](CCC(F)(F)C(F)(F)C(F)(F)C(F)(F)C(F)(F)C(F)(F)F)(OCC)OCC : n
FC(F)(Br)C(F)(F)C(F)(F)C(F)(F)C(F)(F)C(F)(F)Br : n

====

method: CCTE_Shafer_MEA_dev_correlation_coefficient_mean: CCTE's Neural Network Formation Assay for Mean Correlation Coefficient, Shafer Lab (AID 2284093)
Active and inactive are the calls of the source. Rule for the calls: active = hit-call score of the fitted dose curve at least 0.9, where 1 is the maximum; inactive = score below 0.9.
Possible outcomes: True (active), False (inactive)

FC(F)(F)C(F)(F)CNCC(F)(F)C(F)(F)F : False
O=C(O)C(F)(F)C(F)(F)C(F)(F)C(F)(F)C(F)(F)C(F)(F)C(F)(F)C(F)(F)Cl : False
C=CC(=O)OCC(F)(F)C(F)(F)C(F)(F)C(F)(F)COC(=O)C=C : True
O=C(O)C=C(C(F)(F)F)C(F)(F)F : False

====

system: CCAAT/enhancer-binding protein beta (Homo sapiens)
method: ATG_C_EBP_CIS: Attagene CIS-FACTORIAL HepG2 Assay for human CCAAT/Enhancer Binding Protein (C/EBP) beta (AID 2282927)
particulars: HepG2 Attagene cis-factorial transcription factor reporter; actives raise or lower the signal
Calls of active or inactive are those of the source. How the source made its calls: active means hit-call score of the fitted dose curve at least 0.9, where 1 is the maximum; inactive means score below 0.9.
Possible outcomes: active, inactive

CC(C)(C)C(=O)CC(=O)C(F)(F)C(F)(F)C(F)(F)F : inactive
CC(=O)Nc1ccc(N=Nc2cc(C)ccc2O)cc1 : inactive
O=S(=O)(OCC(F)F)C(F)(F)F : inactive
CCN(Cc1cccc(S(=O)(=O)O)c1)c1ccc(C(=C2C=CC(=[N+](CC)Cc3cccc(S(=O)(=O)O)c3)C=C2)c2ccc(O)cc2S(=O)(=O)[O-])cc1 : inactive
CCCCCC=O : inactive
FC(F)(F)C(F)(F)C(F)(F)C(F)(F)C(F)(F)C(F)(F)CC1CO1 (configuration not stated) : inactive
Cc1ccc(S(=O)(=O)NCl)cc1 : inactive
OCC(F)(F)C(F)(F)C(F)(F)C(F)(F)C(F)(F)C(F)(F)F : active
CCCCCCOC(=O)c1ccccc1 : inactive
CCc1c(Br)c(Br)c(Br)c(Br)c1Br : inactive
OCC(F)(F)C(F)(F)C(F)(F)C(F)(F)C(F)(F)C(F)F : inactive
FC(F)(F)C(F)(F)C(F)(F)C(F)(F)C(F)(F)C(F)(F)C(F)(F)Br : inactive

====

method: CEETOX_H295R_MTT_cell_viability: Viability Assessment in the CeeTox HT-H295R MTT Assay (AID 2283718);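 for AC50: curve fitted both ways so AC50 may mark viability loss or gain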
Active and inactive are the calls of the source. How the source made its calls: active means hit-call score of the fitted dose curve at least 0.9, where 1 is the maximum; inactive means score below 0.9.
experimental.readout: AC50

COC(=O)C1CCC(C(=O)OC)CC1 (stereo unspecified) : inactive
C#C[C@]1(O)CC[C@H]2[C@@H]3CCc4cc(OC)ccc4[C@H]3CC[C@@]21C : 44 µM (active)
CC(Cc1ccc(O)c(O)c1)C(C)Cc1ccc(O)c(O)c1 (stereo unspecified) : 37.4 µM (active)
c1ccc(B(c2ccccc2)c2ccccc2)cc1 : 50 µM (active)
CC(=O)Nc1ccc(N=Nc2cc(C)ccc2O)cc1 : inactive
CCCCCCS : inactive

====

system: Estrogen receptor (Homo sapiens)
method: OT_ERa_GFPERaERE_0120: Odyssey Thera (OT) 2-hour HeLa Transcription Induction Assay for Estrogen Receptor (AID 2283382)
The source made the active and inactive calls. How the source made its calls: active means hit-call score of the fitted dose curve at least 0.9, where 1 is the maximum; inconclusive means response in the unintended direction; inactive means score below 0.9.
Possible outcomes: YES for active, NO for inactive

CCCCCCC(C)OC(=O)CCCCC(=O)OC(C)CCCCCC (centres undefined) : NO
CC(CCl)OP(=O)(OC(C)CCl)OC(C)CCl (centres undefined) : NO
CN(C)Cc1ccccc1O : NO
CC(C)OC(=O)c1ccccc1C(=O)OC(C)C : NO
[Co] : NO
O=S(=O)(O)c1ccc2ccccc2c1 : NO
CCCCCCOC(=O)c1ccccc1O : NO
COC(=O)C1CCC(C(=O)OC)CC1 (centres undefined) : NO
c1ccc(B(c2ccccc2)c2ccccc2)cc1 : YES

====

method: CCTE_Padilla_ZF_Score.General: CCTE's 144 Hour Post-fertilization zebrafish Assay Score for General Malformation, Padilla Lab (AID 2284411)
The source made the active and inactive calls. How the source made its calls: active means hit-call score of the fitted dose curve at least 0.9, where 1 is the maximum; inactive means score below 0.9.
Possible outcomes: true (1) = active, false (0) = inactive

O=C(O)C(F)(F)C(F)(F)C(F)(F)C(F)(F)C(F)(F)C(F)(F)C(F)(F)C(F)(F)C(F)(F)C(F)(F)C(F)(F)C(F)(F)C(F)(F)F : false (0)
O=S(=O)(OCCOC(F)(F)F)C(F)(F)F : false (0)
OCC(F)(F)C(F)(F)C(F)(F)C(F)(F)C(F)(F)C(F)(F)F : false (0)
O=C(O)C(F)(OC(F)(F)C(F)(OC(F)(F)C(F)(F)C(F)(F)F)C(F)(F)F)C(F)(F)F (configuration not stated) : false (0)
FC(F)(F)C(F)(F)C(F)(F)C(F)(F)C(F)(F)C(F)(F)C(F)(F)I : true (1)
O=C(Cl)C(F)(F)C(F)(F)C(F)(F)C(F)(F)C(F)(F)C(F)(F)C(F)(F)C(F)(F)F : true (1)
FC(F)(F)C(F)(F)C(F)(F)C(F)(F)C(F)(F)C(F)(F)C(F)(F)C(F)(F)CCS : false (0)
CC(C)(C)C(=O)CC(=O)C(F)(F)C(F)(F)C(F)(F)F : true (1)
FC(F)(Br)C(F)(F)C(F)(F)C(F)(F)C(F)(F)C(F)(F)Br : false (0)
CCCCCCCCC(F)(F)C(F)(F)C(F)(F)C(F)(F)C(F)(F)C(F)(F)F : false (0)
FC(F)(F)C(F)(F)C(F)(F)C(F)(F)C(F)(F)C(F)(F)CCS : false (0)
FC(F)(F)C(F)(F)C(F)(F)C(F)(F)C(F)(F)C(F)(F)C(F)(F)Br : false (0)
O=C(O)C(F)(F)C(F)(F)C(F)(F)C(F)(F)C(F)(F)C(F)(F)C(F)(F)C(F)(F)C(F)(F)C(F)(F)C(F)(F)C(F)(F)F : false (0)
O=C(O)C(F)(F)C(F)(F)C(F)(F)C(F)(F)F : false (0)
FC(F)(F)C(F)(F)CNCC(F)(F)C(F)(F)F : false (0)
FC(F)(F)C(F)(F)C(F)(F)C(F)(F)C(F)(F)C(F)(F)C(F)(F)C(F)(F)F : false (0)
O=C(O)C(F)(F)C(F)(F)C(F)(F)F : false (0)
C=CC(F)(F)C(F)(F)C(F)(F)C(F)(F)C(F)(F)C(F)(F)C(F)(F)C(F)(F)F : false (0)
FC(F)(I)C(F)(F)C(F)(F)C(F)(F)I : true (1)
O=C(O)C(F)(F)C(F)(F)OC(F)(F)F : false (0)
N=C(N)C(F)(F)C(F)(F)C(F)(F)C(F)(F)C(F)(F)C(F)(F)C(F)(F)F : false (0)
C=CC(=O)OCC(F)(F)C(F)(F)C(F)(F)C(F)(F)C(F)(F)C(F)(F)C(F)(F)F : false (0)
FC(F)(F)C(F)(F)C(F)(F)C(F)(F)C(F)(F)CCI : true (1)
C=CC(=O)OCC(F)(F)C(F)(F)C(F)(F)C(F)(F)COC(=O)C=C : false (0)
O=C(O)C(F)(F)C(F)(F)F : false (0)
C=C(C)C(=O)OCCC(F)(F)C(F)(F)C(F)(F)C(F)(F)C(F)(C(F)(F)F)C(F)(F)F : false (0)
OCC(F)(F)C(F)(F)C(F)(F)C(F)F : false (0)
O=C(CC(=O)C(F)(F)C(F)(F)F)C(F)(F)F : false (0)
FC(F)(F)C(F)(F)C(F)(F)C(F)(F)CCI : false (0)
Oc1ccc(Nc2ccccc2)cc1 : false (0)
O=C(O)C(F)(F)C(F)(F)C(F)(F)C(F)(F)C(F)(F)C(F)(F)C(F)(F)C(F)(F)Cl : true (1)
CCCCNc1ccccc1 : false (0)
